Where do the numbers come from? From the EternaBench riboswitch data.

- System: MS2 coat protein
- test_name: apparent Kd, MS2 coat protein; higher = weaker binding; RNA-MaP array; FMN 200 µM where present
- conditions: designed as: OFF switch for flavin mononucleotide; no ligand
reported_endpoint: apparent Kd (nM)
Numeric answer only, unit nM assumed.

chain=GUGGUAUUCGUAGGAUAUCCGUCGCCACCGUGUGGAGAAGGACGAACAUGAGGAUCACCCAUGUAUCAUGGUGUGGACGCUGUC value_unit=nM reading=92.1
chain=CAGGUCUGAGGAUAUCCAUCCUCCUACAUGAGGAUCACCCAUGUUUCCCUCUGGGUUUUCGGAGAAGGCAGUUUUU value_unit=nM reading=749
chain=ACGUGACAUGAGGAUCACCCAUGUGAGGAUAUCUGGAUAAUUUUUAUUUUAGAUAUCCAGAGAAGGCACAUGUU value_unit=nM reading=206
chain=UUGUUAUAUGUAGGAUAUGCAUAUUAUUAUUAUGCAGAAGGACAUGAGGAUCACCCAUGUAUAUUAUUAUUAUAUGUUAUAUAU value_unit=nM reading=23.8
chain=GCAUGGAAAGUGAGGAUAUACCACUGGAUACAGUGGUAGAAGGCACAUGAGGAUCACCCAUGUCUCUACCAUGC value_unit=nM reading=13.6
chain=UGGUGACGUUUCUUCUCGACAUGAGGAUCACCCAUGUAGACAGAGGAUAUCCGAGUUGCCAAUAAGGAGAAGGCUGACUGCGAA value_unit=nM reading=6.61
chain=GGUACUCAAAGAGUACCAAUACGAACAUGAGGAUCACCCAUGUAGGAUAUGCUACUCAAAGAGUAGCAGAAGGACAUGUGCCUC value_unit=nM reading=418

Now look at this one.
Inquiry: # return recorded apparent Kd for entry UUUCUCGGCGAGAAGGGAGUACAUGAGGAUCACCCAUGUGGUCCAUGGAGCUCAGGAUAUCGCGAGGUCGAUGUCGACGGAGUA
Reply text: 127
